Just for reference, patent US11459338B2 is where these values come from.

The entries below are paired with their reported IC50.
- experimental target: PRMT5/MEP50 (Homo sapiens, UniProt O14744)
- Construct: Full-length human PRMT5 (NP_006100)
- Sequence (O14744 whole entry): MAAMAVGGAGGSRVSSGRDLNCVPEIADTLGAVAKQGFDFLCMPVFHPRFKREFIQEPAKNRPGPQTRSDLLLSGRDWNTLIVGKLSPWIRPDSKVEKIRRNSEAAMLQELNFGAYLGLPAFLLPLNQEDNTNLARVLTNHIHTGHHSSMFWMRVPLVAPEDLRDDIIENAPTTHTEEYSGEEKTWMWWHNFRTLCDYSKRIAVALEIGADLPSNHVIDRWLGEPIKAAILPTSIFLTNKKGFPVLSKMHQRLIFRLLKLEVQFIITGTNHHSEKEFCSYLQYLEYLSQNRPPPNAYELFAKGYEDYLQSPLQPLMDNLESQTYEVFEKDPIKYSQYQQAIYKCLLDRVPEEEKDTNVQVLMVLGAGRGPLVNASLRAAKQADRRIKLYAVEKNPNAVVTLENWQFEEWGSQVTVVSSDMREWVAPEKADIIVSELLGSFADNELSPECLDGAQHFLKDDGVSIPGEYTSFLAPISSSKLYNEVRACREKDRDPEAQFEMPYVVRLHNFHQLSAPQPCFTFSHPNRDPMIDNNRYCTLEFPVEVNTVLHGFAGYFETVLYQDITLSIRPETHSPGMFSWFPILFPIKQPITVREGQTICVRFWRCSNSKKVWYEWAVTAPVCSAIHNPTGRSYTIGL
- Sequence (Q9BQA1 whole entry partner): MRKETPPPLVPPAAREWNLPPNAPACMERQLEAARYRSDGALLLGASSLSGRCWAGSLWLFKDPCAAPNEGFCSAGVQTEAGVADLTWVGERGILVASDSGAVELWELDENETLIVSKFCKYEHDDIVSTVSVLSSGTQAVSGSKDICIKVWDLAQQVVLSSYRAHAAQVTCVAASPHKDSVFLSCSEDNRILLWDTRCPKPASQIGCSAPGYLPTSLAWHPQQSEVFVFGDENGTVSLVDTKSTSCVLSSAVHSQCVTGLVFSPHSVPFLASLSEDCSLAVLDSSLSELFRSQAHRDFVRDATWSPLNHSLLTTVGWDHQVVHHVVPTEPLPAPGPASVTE
- assay notes: PRMT5/MEP50 enzyme assay on peptide substrates (3H-SAM Flashplate)
- test conditions: PRMT5/MEP50 10 nM, H4 1-15aa peptide 100 nM, 3H-SAM 1 μM
- Description: General materials like S-adenocylmethionine (SAM), S-adenosylhomocysteine (SAH), Tris-HCl, DTT, […] (BSA) and Tween-20 were purchased from Sigma-Aldrich. 3H-SAM and 384-well streptavidin Flashplates were purchased from Perkin Elmer. […] The IC50 values were calculated using a 4-parameter variable slope fit algorithm (cpm—counts per minute, cmpd—signal in assay well, and cpmmax and cpmmin mare the respective minimum and maximum signal controls).

> print(dat)
                                   compound  readout.name       observed
1  Cc1c(C(=O)NC[C@H](O)CN2CCc3ccccc3C2)nc2cnc(-c3ccc(=O)n(C)c3)cn12          IC50  10 to 1000 nM

I'd like to know its IC50. The compound in question is CN(C[C@H](O)CN1CCc2ccccc2C1)C(=O)c1cn2cc(-c3ccc(=O)n(C)c3)ncc2n1
1000 to 5000 nM

I'd like to know its IC50. The compound in question is Cn1cc(-c2cn3cc(C(=O)NC[C@H](O)CN4CCc5ccccc5C4)nc3cn2)ccc1=O
10 to 1000 nM

I'd like to know its IC50. The compound in question is O=C(NC[C@H](O)CN1CCc2cc(F)ccc2C1)c1cn2nc(C(F)(F)F)ccc2n1
> 5000 nM

###

- experimental target: PRMT5/MEP50 (Homo sapiens)
- Construct: Full-length human PRMT5 (NP_006100)
- assay notes: PRMT5/MEP50 enzyme assay on peptide substrates (3H-SAM Flashplate)
- test conditions: PRMT5/MEP50 10 nM, H4 1-15aa peptide 100 nM, 3H-SAM 1 μM
pIC50: −log10 of the molar value.
The entries below are paired with their reported pIC50.

Example cases with answers are listed next.
> print(dat)
                                   compound         experimental.target  readout.name      observed
1  Cc1cn2cc(C(=O)NC[C@H](O)CN3CCc4ccccc4C3)nc2cn1  PRMT5/MEP50 (Homo sapiens)         pIC50  5.30 to 6.00
2  CC(=O)N1CCC(C2CCc3nc(C(=O)NC[C@H](O)CN4CCc5ccccc5C4)cn3C2)CC1 (single isomer, unassigned) [Example 118A]  PRMT5/MEP50 (Homo sapiens)         pIC50  6.00 to 8.00
3  CC(C)n1cc(-c2ccc3nc(C(=O)NC[C@H](O)CN4CCc5ccccc5C4)cn3c2)nn1  PRMT5/MEP50 (Homo sapiens)         pIC50  6.00 to 8.00
4  O=C(NCC(O)CN1CCc2ccccc2C1)c1cn2c(n1)CCC(c1ccccc1)C2 (stereo not shown)  PRMT5/MEP50 (Homo sapiens)         pIC50  5.30 to 6.00
5  Cc1ncc(-c2ccc3nc(C(=O)NC[C@H](O)CN4CCc5ccccc5C4)cn3c2)cn1  PRMT5/MEP50 (Homo sapiens)         pIC50  6.00 to 8.00
6  CC(C)c1nc(-c2ccc3nc(C(=O)NC[C@H](O)CN4CCc5ccccc5C4)cn3c2)no1  PRMT5/MEP50 (Homo sapiens)         pIC50  6.00 to 8.00
7  O=C(NC[C@H](O)CN1CCc2ccccc2C1)c1cn2nc(C(F)(F)F)ccc2n1  PRMT5/MEP50 (Homo sapiens)         pIC50  5.30 to 6.00
8  Cc1ccc(-c2ccc3nc(C(=O)NC[C@H](O)CN4CCc5ccccc5C4)cn3c2)cn1  PRMT5/MEP50 (Homo sapiens)         pIC50  6.00 to 8.00

I'd like to know its pIC50. The compound in question is CN(C[C@H](O)CN1CCc2ccccc2C1)C(=O)c1cn2nc(C(F)(F)F)ccc2n1
5.30 to 6.00

I'd like to know its pIC50. The compound in question is CN(C[C@H](O)CN1CCc2ccccc2C1)C(=O)c1cn2cc(-c3ccn(C)c(=O)c3)ncc2n1
6.00 to 8.00

I'd like to know its pIC50. The compound in question is Cn1cc(-c2ccc3nc(C(=O)NC[C@H](O)CN4CCc5ccccc5C4)cn3n2)cn1
6.00 to 8.00

I'd like to know its pIC50. The compound in question is O=C(NC[C@H](O)CN1CCc2ccccc2C1)c1cn2cc(-c3noc(C4CC4)n3)ccc2n1
6.00 to 8.00

I'd like to know its pIC50. The compound in question is O=C(NCC(O)CNC1Cc2ccccc2C1)c1cn2cc(C(F)(F)F)ccc2n1 (stereo not shown)
6.00 to 8.00

I'd like to know its pIC50. The compound in question is CC1CCc2nc(C(=O)NCC(O)CN3CCc4ccccc4C3)cn2C1 (stereo not shown)
5.30 to 6.00

I'd like to know its pIC50. The compound in question is Cc1ccc2nc(C(=O)NCC(O)CN3CCc4ccccc4C3)cn2c1 (stereo not shown)
6.00 to 8.00

I'd like to know its pIC50. The compound in question is O=C(NC[C@H](O)CN1CCc2ccccc2C1)c1cn2cc(N3CCC(F)C3)ccc2n1 (stereo partly shown)
6.00 to 8.00

###

- experimental target: PRMT5/MEP50 (Homo sapiens)
- Construct: Full-length human PRMT5 (NP_006100)
- assay notes: PRMT5/MEP50 enzyme assay on peptide substrates (3H-SAM Flashplate)
- test conditions: PRMT5/MEP50 10 nM, H4 1-15aa peptide 100 nM, 3H-SAM 1 μM
- Method: General materials like S-adenocylmethionine (SAM), S-adenosylhomocysteine (SAH), Tris-HCl, DTT, […] (BSA) and Tween-20 were purchased from Sigma-Aldrich. 3H-SAM and 384-well streptavidin Flashplates were purchased from Perkin Elmer. […] The IC50 values were calculated using a 4-parameter variable slope fit algorithm (cpm—counts per minute, cmpd—signal in assay well, and cpmmax and cpmmin mare the respective minimum and maximum signal controls).
The entries below are paired with their reported IC50.

> print(dat)
                                   compound         observed
1  Cn1ccc(-c2ccn3nc(C(=O)NC[C@H](O)CN4CCc5ccccc5C4)cc3n2)cc1=O    10 to 1000 nM
2  CC(C)C1CCc2nc(C(=O)NC[C@H](O)CN3CCc4ccccc4C3)cn2C1 (some centres unmarked)  1000 to 5000 nM
3  O=C(NC[C@H](O)CN1CCc2ccccc2C1)c1cn2c(n1)CCC(c1ccc(F)cc1)C2 (some centres unmarked)    10 to 1000 nM
4  Cn1cc(-c2ccc3nc(C(=O)NC[C@H](O)CN4CCc5cc(F)ccc5C4)cn3c2)cn1  1000 to 5000 nM
5  CCCC1CCc2nc(C(=O)NCC(O)CN3CCc4ccccc4C3)cn2C1 (centres unmarked)    10 to 1000 nM
6  O=C(NC[C@@H](O)[C@H](O)CN1CCc2ccccc2C1)c1cn2cc(C(F)(F)F)ccc2n1    10 to 1000 nM
7  Cc1cn2c(C)c(C(=O)NC[C@H](O)CN3CCc4ccccc4C3)nc2cn1  1000 to 5000 nM

Continue with the compound presented below.
I'd like to know its IC50. The compound in question is O=C(NC[C@H](O)[C@@H](O)CN1CCc2ccccc2C1)c1cn2cc(C(F)(F)F)ccc2n1
10 to 1000 nM

###

- experimental target: PRMT5/MEP50 (Homo sapiens, UniProt O14744)
- Construct: Full-length human PRMT5 (NP_006100)
- assay notes: PRMT5/MEP50 enzyme assay on peptide substrates (3H-SAM Flashplate)
- test conditions: PRMT5/MEP50 10 nM, H4 1-15aa peptide 100 nM, 3H-SAM 1 μM
readout name: IC50

> print(dat)
                                   compound                       experimental.target  readout.name      observed
1  O=C(NC[C@H](O)CN1CCc2ccccc2C1)c1cn2cc(-c3cnn(C4COC4)c3)ccc2n1  PRMT5/MEP50 (Homo sapiens, UniProt O14744)          IC50  0.01 to 1 µM

I'd like to know its IC50. The compound in question is CN(C[C@H](O)CN1CCc2ccccc2C1)C(=O)c1cn2cc(-c3cnn(C)c3)ncc2n1
0.01 to 1 µM

I'd like to know its IC50. The compound in question is Cc1ccc2nc(C(=O)NC[C@H](O)CN3CCc4ccccc4C3)cn2n1
1 to 5 µM

I'd like to know its IC50. The compound in question is CC(=O)Nc1ccc2nc(C(=O)NC[C@H](O)CN3CCc4ccccc4C3)cn2c1
0.01 to 1 µM

I'd like to know its IC50. The compound in question is O=C(NC[C@H](O)CN1CCc2cc(F)ccc2C1)c1cn2cc(C(F)(F)F)ncc2n1
1 to 5 µM

I'd like to know its IC50. The compound in question is CC(=O)N1CCC(c2ccc3nc(C(=O)NCC(O)CNC4Cc5ccccc5C4)cn3c2)CC1 (centres unmarked)
0.01 to 1 µM

I'd like to know its IC50. The compound in question is Cn1ccc(-c2ccc3nc(C(=O)NC[C@H](O)CN4CCc5ccccc5C4)cn3n2)cc1=O
0.01 to 1 µM

I'd like to know its IC50. The compound in question is Cc1nc(-c2ccc3nc(C(=O)NC[C@H](O)[C@@H](O)CN4CCc5ccccc5C4)cn3c2)no1
0.01 to 1 µM

I'd like to know its IC50. The compound in question is Cc1ncc(-c2ccc3nc(C(=O)NC[C@H](O)CN4CCc5ccccc5C4)cn3c2)s1
0.01 to 1 µM

I'd like to know its IC50. The compound in question is CC1CCn2cc(C(=O)NCC(O)CN3CCc4ccccc4C3)nc2C1 (centres unmarked)
1 to 5 µM

I'd like to know its IC50. The compound in question is O=C(NC[C@H](O)CN1CCc2ccccc2C1)c1cc2nc(C(F)(F)F)ccn2n1
1 to 5 µM

I'd like to know its IC50. The compound in question is O=C(NCC(O)CN1CCc2ccccc2C1)c1cn2cc(C(F)(F)F)ccc2n1 (centres unmarked)
0.01 to 1 µM

I'd like to know its IC50. The compound in question is CC(=O)N1CCC(c2ccc3nc(C(=O)NC[C@H](O)CN4CCc5ccccc5C4)cn3n2)CC1
0.01 to 1 µM

I'd like to know its IC50. The compound in question is CO[C@@H]1CCc2nc(C(=O)NC[C@H](O)CN3CCc4ccccc4C3)cn2C1 [Example 107A]
> 5 µM

I'd like to know its IC50. The compound in question is O=C(NC[C@H](O)CN1CCc2ccccc2C1)c1cn2cc(C3(O)COC3)ccc2n1
1 to 5 µM

I'd like to know its IC50. The compound in question is CS(=O)(=O)Nc1ccc2nc(C(=O)NC[C@H](O)CN3CCc4ccccc4C3)cn2c1
> 5 µM

I'd like to know its IC50. The compound in question is Cn1ccc(-c2ccc3nc(C(=O)NCC(O)CNC4Cc5ccccc5C4)cn3c2)cc1=O (centres unmarked)
0.01 to 1 µM
